target: T1, human melanocortin 1 receptor (human, UniProt Q01726 1-317); experiment: competitive binding vs Eu-NDP-alpha-MSH, time-resolved fluorescence, HCT116/hMC1R cells
T1 construct: whole, on cells; also called hMC1R; MC1R
T1 sequence (Q01726 whole entry): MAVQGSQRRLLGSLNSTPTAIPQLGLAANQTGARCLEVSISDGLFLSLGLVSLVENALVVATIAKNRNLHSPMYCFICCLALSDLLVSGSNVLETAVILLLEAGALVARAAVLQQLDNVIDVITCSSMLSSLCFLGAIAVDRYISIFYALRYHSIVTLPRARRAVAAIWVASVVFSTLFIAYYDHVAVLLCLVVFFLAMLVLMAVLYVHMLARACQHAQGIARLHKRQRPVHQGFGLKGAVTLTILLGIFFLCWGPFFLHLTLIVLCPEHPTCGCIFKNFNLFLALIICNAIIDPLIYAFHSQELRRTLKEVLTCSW
Square brackets hold non-standard residues; d marks the D form. * marks the point of attachment. d2Nal = N[C@H](Cc1ccc2ccccc2c1)C(=O)O; Butanoyl(4-Ph) = O=C(CCCc1ccccc1)*; Butanoyl(4-ethynyl) = C#CCCCC(=O)*; hPhe = N[C@@H](CCc1ccccc1)C(=O)O; Nle = CCCC[C@H](N)C(=O)O
pKi listing for selected binders.
// pKi is dimensionless: -log10 of concentration (M)

Some entries whose results are on file:
>  <Binder>
{Butanoyl(4-Ph)}-H[dF]RW-NH2 (Synthetic peptidomimetic; also called compound 1) [4-phenylbutyryl-His-DPhe-Arg-Trp-NH2]

>  <pKi>
9.77

$$$$
>  <Binder>
Ac-[hPhe]H[dF]RW-NH2 (Synthetic; also called compound 2) [Ac-Homophenylalanine-His-DPhe-Arg-Trp-NH2]

>  <pKi>
8.75

$$$$
>  <Binder>
H-K(Butanoyl(4-ethynyl))YV[Nle]GH[d2Nal]R[dF]DRFG-NH2 (SMILES C#CCCCC(=O)NCCCC[C@H](N)C(=O)N[C@@H](Cc1ccc(O)cc1)C(=O)N[C@H](C(=O)N[C@@H](CCCC)C(=O)NCC(=O)N[C@@H](Cc1c[nH]cn1)C(=O)N[C@H](Cc1ccc2ccccc2c1)C(=O)N[C@@H](CCCNC(=N)N)C(=O)N[C@H](Cc1ccccc1)C(=O)N[C@@H](CC(=O)O)C(=O)N[C@@H](CCCNC(=N)N)C(=O)N[C@@H](Cc1ccccc1)C(=O)NCC(N)=O)C(C)C, Synthetic; alkyne analogue of ligand 7; also called compound 8; ligand 8) [H-Lys(hex-5-ynoyl)Tyr-Val-Nle-Gly-His-DNal(2′)-Arg-DPhe-Asp-Arg-Phe-Gly-NH2]

>  <pKi>
8.38

$$$$
>  <Binder>
{Butanoyl(4-Ph)}-H[dF]RWGK(Butanoyl(4-ethynyl))-NH2 (SMILES C#CCCCC(=O)NCCCC[C@H](NC(=O)CNC(=O)[C@H](Cc1c[nH]c2ccccc12)NC(=O)[C@H](CCCNC(=N)N)NC(=O)[C@@H](Cc1ccccc1)NC(=O)[C@H](Cc1c[nH]cn1)NC(=O)CCCc1ccccc1)C(N)=O, Synthetic; alkyne-functionalised form of compound 1; also called compound 4) [4-phenylbutyryl-His-DPhe-Arg-Trp-Gly-Lys(hex-5-ynoyl)-NH2]

>  <pKi>
9.62

$$$$

Okay, now this binder:
Input: # pKi lookup, item H-YV[Nle]GH[d2Nal]R[dF]DRFG-NH2 (SMILES CCCC[C@H](NC(=O)[C@@H](NC(=O)[C@@H](N)Cc1ccc(O)cc1)C(C)C)C(=O)NCC(=O)N[C@@H](Cc1c[nH]cn1)C(=O)N[C@H](Cc1ccc2ccccc2c1)C(=O)N[C@@H](CCCNC(=N)N)C(=O)N[C@H](Cc1ccccc1)C(=O)N[C@@H](CC(=O)O)C(=O)N[C@@H](CCCNC(=N)N)C(=O)N[C@@H](Cc1ccccc1)C(=O)NCC(N)=O, Synthetic; also called compound 7; ligand 7) [H-Tyr-Val-Nle-Gly-His-DNal(2′)-Arg-DPhe-Asp-Arg-Phe-Gly-NH2]
Output: 8.25
